Provenance of the data: PubChem BioAssay (NCI)

Tested on: SF-295 CNS
Experiment: NCI-60 one-dose screen, 48 h (100 = growth as untreated, 0 = no growth, -100 = all killed)
Details: 10 µM unless noted
About 83,000 compounds went through this panel and 20% of them were active in at least one assay; those are over-represented in the sample as a whole.
growth class ranges: low interval: < 60%; middle interval: ≥ 60% and < 90%; high interval: ≥ 90%

Field: class (growth) — entry: `CC1(C)CC[C@]23CC[C@]4(C)[C@H](CC[C@@H]5[C@@]6(C)CC[C@H](N)C(C)(C)[C@@H]6CC[C@]54C)[C@H]2[C@H]1OC3`
middle interval

Field: class (growth) — entry: NC1C2CCC1CN(c1cnc(C(=O)Nc3cc(F)cc4cccnc34)cn1)C2 (centres undefined)
middle interval

Field: class (growth) — entry: `COc1ccc(-c2c(C(N)=O)c(N)n(Cc3nc4ccccc4[nH]3)c(=O)c2C#N)c(OC)c1`
high interval

Field: class (growth) — entry: `CC(C)(O)c1cncc(-c2ccc3ncc(C#N)c(N4CCc5cc(F)c(Cl)cc54)c3c2)c1`
low interval

Field: class (growth) — entry: `Brc1ccc2[nH]cc(-c3nn4cc(-c5nccs5)nc4s3)c2c1`
low interval

Field: class (growth) — entry: `O=C1[C@@H]2Cc3c([nH]c4ccccc34)[C@H](c3ccc(Cl)cc3)N2C(=O)CN1C1CCN(Cc2ccccc2)CC1`
middle interval

Field: class (growth) — entry: `Clc1cccc(/C=N/Nc2nc(N/N=C/c3cccc(Cl)c3)nc(N3CCOCC3)n2)c1`
low interval

Field: class (growth) — entry: CC(O)c1cccc(/C(N)=N/C(N)=N/c2nc3ccccc3s2)c1 (centres undefined)
middle interval

Field: class (growth) — entry: `Cn1cc(-c2nc(N)nnc2-c2c[nH]c3ccc(Br)cc23)c2cc(F)ccc21`
high interval

----------
Test system: DU-145 prostate
Test: NCI-60 one-dose screen, 48 h (100 = growth as untreated, 0 = no growth, -100 = all killed)
Details: 10 µM unless noted
This is part of a sample that, as a whole, favours compounds with a hit. Of some 83,000 tested, about 20% had one in any assay. Calls of active or inactive are those of the source. How the source made its calls: active means growth percent below 10; inactive means the rest.
quantity-measured: growth

Specify reported growth for the molecule shown: C#CCOc1ccccc1C(OC(=O)c1ccccc1)C(=O)NC(C)(C)C(C)(C)C (stereo not given)
108% (inactive)

Specify reported growth for the molecule shown: `C#CCOc1cccc(/C(N)=N/C(N)=N/c2nc3ccccc3s2)c1`
97.4% (inactive)

Specify reported growth for the molecule shown: `COc1ccccc1Cn1cc(C#N)c(N)c1C(=O)c1ccc(Br)cc1`
104% (inactive)

Specify reported growth for the molecule shown: `Cc1ccsc1[C@H]1c2[nH]c3ccccc3c2C[C@H]2C(=O)N(CCCCCCC(=O)NO)CC(=O)N12`
90.6% (inactive)

Specify reported growth for the molecule shown: `Cn1cc(-c2cc3ncnc(Nc4ccc(NC(=O)Nc5cc(C(C)(C)C)on5)cc4)c3s2)cn1`
47.8% (inactive)

----------
Tested on: COLO 205 colon
Experiment: NCI-60 one-dose screen, 48 h
Details: 10 µM unless noted
Compounds without any hit were thinned out: in the full panel of roughly 83,000, 20% have a hit. Activity calls are given as the source filed them. Rule for the calls: active = growth percent below 10; inactive = the rest.
// classify into 1 = active, 0 = inactive

In this assay, the call recorded for `CNC(=O)c1cc(N2CCc3cc(NC(=O)Nc4ccc(N5CCOCC5)c(C(F)(F)F)c4)ccc32)ccn1` was what?
0

In this assay, the call recorded for `Brc1cc(-c2cc(-c3ccc4c(c3)OC=CO4)[nH]n2)cs1` was what?
0

In this assay, the call recorded for `COC(=O)c1cccc(NC2=C(Cl)C(=O)c3nc(C)ccc3C2=O)c1` was what?
0

In this assay, the call recorded for CC(=O)N1N=C(c2cc3ccccc3oc2=O)CC1c1cn(-c2ccccc2)nc1-c1ccc(C)cc1 (centres undefined) was what?
0

In this assay, the call recorded for `COC(=O)CNC(=O)c1cccc(-c2cc(=O)c3c(OC)c(OC)c(OC)cc3o2)c1` was what?
0

In this assay, the call recorded for `CN1CCN(c2ccc(Nc3nc(NCCNS(=O)(=O)c4ccc(Cl)cc4)c4sccc4n3)cc2)CC1` was what?
0

In this assay, the call recorded for `COc1cc2oc(-c3cccc(NC(=O)c4cccc([N+](=O)[O-])c4)c3)cc(=O)c2c(OC)c1OC` was what?
0

In this assay, the call recorded for `Nn1c(=O)n(-c2cccc(C(F)(F)F)c2)c(=O)c2cc(-c3ccc(F)cc3F)ccc21` was what?
0

In this assay, the call recorded for `CCNC(=O)Oc1ccc(/C(=C(/C)c2ccc(Cl)cc2)c2ccc(OCCN3CCCCCC3)cc2)cc1` was what?
1
